Listed here are compounds together with their documented IC50.
# experimental-target: PDE4B (Homo sapiens)
# procedure-summary: In-vitro assay for PDE4 enzymes, real-time enzyme-coupled spectrophotometric assay, PDE4B Activity (Table 10)
# Format: biochemical
# test-parameters: human PDE4B (hPDE4B), enzyme-coupled spectrophotometric assay; read-out: PDE4B Activity, hPDE4B

compound="COc1ccc(Cc2ccc(N)cn2)c(F)c1-c1cccc(Cl)c1 [P-478]" reported_value="< 5 µM"
compound="COc1ccc(CN2C(=O)CCC2=O)cc1-c1cccc([N+](=O)[O-])c1 [P-036]" reported_value="5 to 20 µM"
compound="COc1ccc(Cc2ccnc(C#N)c2)c(F)c1-c1cccc(Cl)c1 [P-433]" reported_value="< 5 µM"
compound="COc1ccc(Cc2ccc(NC(=O)CCC(=O)O)cc2)cc1-c1cccc([N+](=O)[O-])c1 [P-122]" reported_value="5 to 20 µM"

Ask: Reported IC50 for COc1ccc(Cc2ccc(NC(=O)CCN3CCCCC3)cc2)cc1-c1cccc([N+](=O)[O-])c1 [P-146] : what is it?
Result: 5 to 20 µM

###

# experimental-target: PDE4B (Homo sapiens, UniProt Q07343)
# Sequence (Q07343 whole entry): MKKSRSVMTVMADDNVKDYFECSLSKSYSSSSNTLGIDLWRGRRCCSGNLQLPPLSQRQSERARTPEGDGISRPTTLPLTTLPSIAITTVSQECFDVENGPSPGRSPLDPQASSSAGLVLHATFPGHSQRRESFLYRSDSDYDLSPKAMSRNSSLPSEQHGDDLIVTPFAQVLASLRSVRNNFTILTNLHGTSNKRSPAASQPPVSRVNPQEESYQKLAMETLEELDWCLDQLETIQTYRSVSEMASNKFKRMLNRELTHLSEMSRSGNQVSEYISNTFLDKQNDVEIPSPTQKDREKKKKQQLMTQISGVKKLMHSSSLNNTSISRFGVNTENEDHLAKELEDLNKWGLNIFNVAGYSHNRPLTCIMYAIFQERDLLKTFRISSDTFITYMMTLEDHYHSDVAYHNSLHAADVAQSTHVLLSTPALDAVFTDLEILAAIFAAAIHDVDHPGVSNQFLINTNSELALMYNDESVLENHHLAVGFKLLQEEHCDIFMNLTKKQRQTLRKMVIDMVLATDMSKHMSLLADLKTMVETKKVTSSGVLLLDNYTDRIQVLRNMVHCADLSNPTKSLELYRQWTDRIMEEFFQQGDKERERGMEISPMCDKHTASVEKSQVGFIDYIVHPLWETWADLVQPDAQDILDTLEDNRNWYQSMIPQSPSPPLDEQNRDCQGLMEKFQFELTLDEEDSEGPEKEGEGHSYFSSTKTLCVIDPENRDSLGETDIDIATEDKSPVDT
# procedure-summary: In-vitro assay for PDE4 enzymes, real-time enzyme-coupled spectrophotometric assay, PDE4B Activity (Table 10)
# Format: biochemical
# test-parameters: human PDE4B (hPDE4B), enzyme-coupled spectrophotometric assay; read-out: PDE4B Activity, hPDE4B
Listed here are compounds together with their documented IC50.

Consider the following illustrative entries.
compound=COc1ccc(Cc2ccc(N(C)C)nc2)c(F)c1-c1cccc(C(C)=O)c1 assay_readout=IC50 reported_value="< 5 µM"
compound=Cn1nccc1Cc1ccc(OC(F)F)c(-c2ccc3c(c2)OCO3)c1 assay_readout=IC50 reported_value="21 to 40 µM"
compound=COc1ccc(Cc2ccc(F)cc2)c(N)c1-c1cccc([N+](=O)[O-])c1 assay_readout=IC50 reported_value="< 5 µM"
compound=COc1ccc(Cc2ccc(N(C)C)nc2)c(F)c1-c1cccc(Cl)c1 assay_readout=IC50 reported_value="< 5 µM"
compound=COc1ccc(Cc2ccc(C#N)c(O)c2)c(F)c1-c1cccc(Cl)c1 assay_readout=IC50 reported_value="21 to 40 µM"

Ask: Reported IC50 for COc1ccc(CO)c(O)c1-c1cccc([N+](=O)[O-])c1 : what is it?
Result: 5 to 20 µM

Ask: Reported IC50 for COc1ccc(Cn2cccn2)cc1-c1cccc([N+](=O)[O-])c1 : what is it?
Result: < 5 µM

Ask: Reported IC50 for COc1ccc(Cn2cccn2)cc1-c1ccc2c(c1)OCO2 : what is it?
Result: 5 to 20 µM

Ask: Reported IC50 for COc1ccc(Cn2cncn2)cc1-c1cccc(OC(F)(F)F)c1 : what is it?
Result: 5 to 20 µM

Ask: Reported IC50 for COc1c(F)cc(Cc2ccc(NC(N)=O)cc2)cc1-c1cccc(Cl)c1 : what is it?
Result: < 5 µM

Ask: Reported IC50 for COc1ccc(Nc2ccc(NS(C)(=O)=O)cc2)cc1-c1cccc(C(C)=O)c1 : what is it?
Result: < 5 µM

Ask: Reported IC50 for COc1ccc(Cc2ccc(N)nc2)c(F)c1-c1cccc(C(C)=O)c1 : what is it?
Result: < 5 µM

Ask: Reported IC50 for COc1ccc(Cc2ccc(CN3CCN(C)C3=O)nc2)c(F)c1-c1cccc(Cl)c1 : what is it?
Result: < 5 µM

Ask: Reported IC50 for COc1ccc(Cc2ccc(N3CCC3)nc2)cc1-c1cccc(Cl)c1 : what is it?
Result: < 5 µM

Ask: Reported IC50 for COc1ccc(Oc2ccc(NS(C)(=O)=O)cc2)c(F)c1-c1cccc(Cl)c1 : what is it?
Result: < 5 µM

Ask: Reported IC50 for COc1ccc(Cn2cc(NC(N)=O)ccc2=O)cc1-c1cccc([N+](=O)[O-])c1 : what is it?
Result: 5 to 20 µM

Ask: Reported IC50 for COc1ccc(Cc2ccc(OC)c(-c3cccc(Cl)c3)c2F)cn1 : what is it?
Result: < 5 µM

Ask: Reported IC50 for COc1ccc(Cc2ccc(C(N)=O)cc2)cc1-c1cccc(Cl)c1 : what is it?
Result: 5 to 20 µM

Ask: Reported IC50 for COc1ccc(Cc2ccc(CNC(C)=O)c(F)c2)c(F)c1-c1cccc(Cl)c1 : what is it?
Result: < 5 µM

Ask: Reported IC50 for COc1ccc(Cc2ccc(NC(=O)CCN)cc2)cc1-c1cccc([N+](=O)[O-])c1 : what is it?
Result: < 5 µM

Ask: Reported IC50 for COc1ccc(Cc2ccc(N3CCOC3=O)nc2)c(F)c1-c1cccc(Cl)c1 : what is it?
Result: < 5 µM
